Recorded values, source PubChem BioAssay (NCATS).

experiment: qHTS assay for small molecule agonists of the antioxidant response element (ARE) signaling pathway measured by Nrf2-dependant transcriptional activity - cell viability counter screen (AID 720653); details: ARE-bla HepG2 viability, CellTiter-Glo ATP luminescence, 16 h; stronger effect = lower value; note: % is set by controls: 0 for no effect and ±100 for the full control effect
Records with an inconclusive call do not appear.
measurement type: max response (%)

> print(dat)
                          compound  assay.result
1                             CCBr         -4.15
2               Cc1ccc2c(C)cccc2c1         -2.91
3                  Nc1ccc2ccccc2c1         -2.01
4  ClCC(Br)CBr (centres undefined)          3.72
5                          CCCCC#N         -5.38
6                         CN(C)N=O         -2.49
7          Nc1ccc(-c2ccc(N)cc2)cc1         -3.71
8  Brc1ccc(Oc2ccc(Br)cc2Br)c(Br)c1        -0.481
9   O=[N+]([O-])c1cc(Cl)c(Cl)cc1Cl         -7.17

----------
test: Cellular Toxicity (caspase-3) NIH 3T3 (AID 666); conditions: NIH 3T3 caspase-3 activation, apoptosis/toxicity; series mostly up to 92.2 µM;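 note: caspase signal read after 16 h compound exposure; 0% = DMSO basal and 100% = 100 µM tamoxifen stimulation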
Inconclusive results are not listed. Activity calls are given as the source filed them. Calls come from the whole dose curve; as a rule, active = well fitted activation curve with a large enough effect; inconclusive = small, poorly fitted or top-dose-only effect, or effect the other way; inactive = flat fitted curve, though single readings scatter.
measurement type: outcome

> print(dat)
                               item.smiles  assay.result
1                          Cc1ccc(N)c(C)c1      inactive
2                                    C=CCO      inactive
3                                S=C1NCCN1      inactive
4                  Oc1c(Cl)c(Cl)cc(Cl)c1Cl      inactive
5                                     CSSC      inactive
6                   ClC(Cl)(Cl)C(Cl)(Cl)Cl      inactive
7                            Cc1ccc(N)cc1C      inactive
8  CC(=O)[O-].CC(=O)[O-].CC(=O)[O-].[Cr+3]      inactive
9                          O=[N+]([O-])CCO      inactive

----------
experiment: qHTS assay for cell viability of HEK293 cells (AID 743288); conditions: ATP luminescence (CellTiter-Glo), 18 h, stronger effect = lower value; note: % is set by controls: 0 for no effect and ±100 for the full control effect; nearly all actives have a fitted effect of over 50% in size
Results filed as inconclusive are left out.
measurement type: max response (%)

> print(dat)
                                   compound  assay.result
1  CCOC(=O)C1OC1(C)c1ccccc1 (centres undefined)          7.29
2                                   c1ccoc1        0.0286
3                          C=CC(=O)OCCN(C)C         -6.86
4                                C=CC(=O)OC          4.03
5                         N#C/C(N)=C(/N)C#N       -0.0232
6                   Cc1ccc([N+](=O)[O-])cc1         0.535
7                                    CN=C=O          3.09
8                              CN(C)C(=O)Cl          4.48
9                               ClCCOCOCCCl         -1.26
